PROCEDURE_TEXT: pKa
Format: physicochemical
QUANTITY_NAME: pKa
Answer using only a numeral; do not append any unit.

// returns reported pKa for input Nc1ncc2cc(-c3c(Br)cccc3Br)c(N)nc2n1 [compound 1, reference compound]
4.8
